The reported numbers originate from the supplement of paper PMC8612539.

Collected minimum inhibitory concentration values appear next to each entry.
System: Histophilus somni
Experiment: minimum inhibitory concentration (MIC)
Conditions: isolate (source animal id): 124

The examples below pair each entry with its known result.
compound	property label	reported
CC1(C)S[C@@H]2[C@H](NC(=O)[C@H](N)c3ccccc3)C(=O)N2[C@H]1C(=O)O [Ampicillin]	minimum inhibitory concentration	≤ 0.25 µg/mL
CC[C@H]1OC(=O)C[C@@H](O)[C@H](C)[C@@H](O[C@@H]2O[C@H](C)[C@@H](O)[C@H](N(C)C)[C@H]2O)[C@@H](CCN2C[C@H](C)C[C@H](C)C2)C[C@@H](C)C(=O)/C=C/C(C)=C/[C@@H]1CO[C@@H]1O[C@H](C)[C@@H](O)[C@@H](OC)[C@H]1OC [Tilmicosin]	minimum inhibitory concentration	4 µg/mL
CN1C[C@@H]2C[C@H]1CN2c1cc2c(cc1F)c(=O)c(C(=O)O)cn2C1CC1 [Danofloxacin]	minimum inhibitory concentration	≤ 0.12 µg/mL

Challenge: // query minimum inhibitory concentration value for entry CCCN1C[C@H](C)[C@@H](O)[C@](C)(O)[C@@H](CC)OC(=O)[C@H](C)[C@@H](O[C@H]2C[C@@](C)(OC)[C@@H](O)[C@H](C)O2)[C@H](C)[C@@H](O[C@@H]2O[C@H](C)C[C@H](N(C)C)[C@H]2O)[C@](C)(O)C[C@H]1C [Gamithromycin]
Response given: ≤ 1 µg/mL
